Tested System: T1, Human LILRA6 on transiently transfected HEK293-6E cells (human, UniProt Q6PI73 24-481)
T1 construct: whole, on cells; also called hLILRA6
T1 sequence (Q6PI73 24-481): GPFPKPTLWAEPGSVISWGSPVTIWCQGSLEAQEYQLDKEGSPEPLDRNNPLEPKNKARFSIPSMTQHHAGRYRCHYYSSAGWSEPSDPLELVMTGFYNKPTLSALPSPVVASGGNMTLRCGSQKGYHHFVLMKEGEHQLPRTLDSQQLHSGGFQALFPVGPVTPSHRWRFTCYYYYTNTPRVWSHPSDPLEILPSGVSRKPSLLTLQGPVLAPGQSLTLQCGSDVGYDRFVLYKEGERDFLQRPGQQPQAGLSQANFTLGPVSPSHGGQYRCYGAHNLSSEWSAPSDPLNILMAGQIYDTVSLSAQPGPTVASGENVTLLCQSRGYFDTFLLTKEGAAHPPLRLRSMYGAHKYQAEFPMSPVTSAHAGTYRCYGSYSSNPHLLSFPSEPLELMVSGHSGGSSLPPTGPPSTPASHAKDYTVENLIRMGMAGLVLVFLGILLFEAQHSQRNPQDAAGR
Assay Explanation: flow cytometry, transiently transfected HEK293-6E cells

| Binder | binding result |
| --- | --- |
| B2H1-11 (antibody, V domains shown, Humanized variant, human IgG1 / kappa) VH: QVQLEESGGRVVQPGRSLRLSCAASGFSLSTYAMSWVRQAPGKGLEWIGWIYNDGSTYYAAWAKGRFTISKDTSKTTVFLQMNSLKPDDTATYFCAREGDYIGYFNIWGQGTLVTVSS VL: DIQMTQSPSSLSASVGDRVTITCQASQSIGSNLAWYQLKPGQRPKLLIYAAATLASGVPSRFKGSGSGTDFTLTISSLQSEDAATYYCQSYVSGSSDVAFGGGTEVVVK | no binding |
| B2H1-35 (antibody, V domains shown, Humanized variant, human IgG1 / kappa) VH: QVQLVESGGRVVQPGTPLRLSCAASGFSLSTYAMSWVRQAPGKGLEWVAWIYNDGSTYYAAWAKGRFTISRDTSKNTLYLQTNSLKPDDTAVYYCAREGDYIGYFNIWGQGTLVTVSS VL: DVVMTQTPSSVSAALGGTVTIKCQASQSIGSNLAWYQLKPGQRPKLLIYAAATLASGGSSRFKGSGSGTDFTLTISSLEPADAATYYCQSYVSGSSDVAFGGGTEVVVK | no binding |
| B2H1-55 (antibody, V domains shown, Humanized variant, human IgG1 / kappa; also called humanized variant B2H1-55; humanized LILRB2 antibody B2H1-55) VH: EVQLLESGGGLVQPGTSLTLSCAASGFSLSTYAMSWVRQAPGKGLEWIGWIYNDGSTYYAAWAKGRFTISKDTSKTTLYLQITSLRAEDTATYFCAREGDYIGYFNIWGQGTLVTVSS VL: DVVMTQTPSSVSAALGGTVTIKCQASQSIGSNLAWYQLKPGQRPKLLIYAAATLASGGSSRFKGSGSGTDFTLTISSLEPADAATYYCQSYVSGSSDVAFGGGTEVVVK | no binding |
| B2H1-52 (antibody, V domains shown, Humanized variant, human IgG1 / kappa) VH: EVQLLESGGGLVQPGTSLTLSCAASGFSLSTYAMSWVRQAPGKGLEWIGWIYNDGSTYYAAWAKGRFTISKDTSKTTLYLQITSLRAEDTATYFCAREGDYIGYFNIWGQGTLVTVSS VL: DVVMTQSPSSVSASLGDRVTITCQASQSIGSNLAWYQQKPGQAPKLLIYAAATLASGVPSRFKGSGSGTDFTLTITSLQPADFATYYCQSYVSGSSDVAFGGGTKVEIK | no binding |
